Molecular target: T1, human SEMA4D, full length, on CHO-K1 cells (CHO-K1 hSEMA4D) (human, UniProt Q92854 22-862)
T1 construct: whole, on cells; also called human SEMA4D recombinant cells
T1 sequence (looked up): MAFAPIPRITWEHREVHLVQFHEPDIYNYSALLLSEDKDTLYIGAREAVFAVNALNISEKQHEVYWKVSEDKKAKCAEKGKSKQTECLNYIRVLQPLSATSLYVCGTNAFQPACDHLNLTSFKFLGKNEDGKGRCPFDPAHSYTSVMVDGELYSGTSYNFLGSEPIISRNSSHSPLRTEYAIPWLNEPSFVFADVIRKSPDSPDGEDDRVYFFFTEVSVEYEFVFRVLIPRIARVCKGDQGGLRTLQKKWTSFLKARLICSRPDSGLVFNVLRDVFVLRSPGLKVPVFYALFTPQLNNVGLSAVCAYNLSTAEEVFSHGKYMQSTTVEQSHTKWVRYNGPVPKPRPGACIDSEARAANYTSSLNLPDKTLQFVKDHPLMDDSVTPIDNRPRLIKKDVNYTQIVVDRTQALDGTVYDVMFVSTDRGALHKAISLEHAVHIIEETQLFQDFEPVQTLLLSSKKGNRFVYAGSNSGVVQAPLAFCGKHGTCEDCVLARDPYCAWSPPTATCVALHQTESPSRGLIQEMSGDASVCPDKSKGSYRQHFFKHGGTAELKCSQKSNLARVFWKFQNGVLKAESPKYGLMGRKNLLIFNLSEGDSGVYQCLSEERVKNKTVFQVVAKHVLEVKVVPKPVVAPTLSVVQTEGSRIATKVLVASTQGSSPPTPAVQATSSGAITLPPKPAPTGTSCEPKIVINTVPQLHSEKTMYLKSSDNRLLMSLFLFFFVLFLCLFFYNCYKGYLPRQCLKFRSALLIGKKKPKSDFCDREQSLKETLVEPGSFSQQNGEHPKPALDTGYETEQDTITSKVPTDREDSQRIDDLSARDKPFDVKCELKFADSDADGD
Experiment: FACS, CHO-K1 hSEMA4D cells; Ab 2.67 nM
readoutKind: MFI
No unit in the answer, only the number.

The cases that follow already have their MFI on record.
{"columns": ["binder", "measValue"],
 "data": [
  ["31G10C5 (antibody, V domains shown, Mouse monoclonal antibody purified from hybridoma supernatant on protein A) VH: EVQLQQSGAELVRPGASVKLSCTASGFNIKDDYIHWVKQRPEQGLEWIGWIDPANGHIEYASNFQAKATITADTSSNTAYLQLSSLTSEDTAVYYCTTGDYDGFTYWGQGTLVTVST VL: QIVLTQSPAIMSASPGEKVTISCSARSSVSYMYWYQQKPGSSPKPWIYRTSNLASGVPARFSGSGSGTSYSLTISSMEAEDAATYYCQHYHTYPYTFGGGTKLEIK", 5860],
  ["37F11F9 (antibody, V domains shown, Mouse monoclonal antibody purified from hybridoma supernatant on protein A) VH: EVQLQQSGPVLVKPGASVKMSCKASGYTFTDYYMNWVKQSHGKSLEWIGLINPYSGGSTFNQKFKAKATLTVDKSSSSAYMDLNSLTSEDSAVYYCARVGDGYYGVTHGMDYWGQGTSVTVSS VL: DIVMTPSQKFMSTTVGDRVSITCKASQNVGTAVAWYQQKPGQSPTILIYSASNRYTGVPDRFTGSGSGTDFTLTISNMKSEDLADYFCQQYYIYPFTFAAGTKLELK", 2880],
  ["32C8F10 (antibody, V domains shown, Mouse monoclonal antibody purified from hybridoma supernatant on protein A) VH: EVQLQQSGAELVRPGASVKLSCTASGFNIKDEYIHWVKQRPEQGLEWIGWIDPANGHTEYASRFQAKATITADTSSNTAYLQLSSLTSEDTAVYYCTTGDYDGFAYWGQGTLVTVST VL: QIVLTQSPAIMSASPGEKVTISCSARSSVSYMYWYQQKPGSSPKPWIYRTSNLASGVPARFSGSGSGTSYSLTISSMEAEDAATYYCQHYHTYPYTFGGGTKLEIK", 6170],
  ["31C11G2 (antibody, V domains shown, Mouse monoclonal antibody purified from hybridoma supernatant on protein A) VH: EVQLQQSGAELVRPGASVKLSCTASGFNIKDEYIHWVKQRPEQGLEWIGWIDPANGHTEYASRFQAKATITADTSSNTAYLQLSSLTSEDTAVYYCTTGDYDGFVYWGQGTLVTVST VL: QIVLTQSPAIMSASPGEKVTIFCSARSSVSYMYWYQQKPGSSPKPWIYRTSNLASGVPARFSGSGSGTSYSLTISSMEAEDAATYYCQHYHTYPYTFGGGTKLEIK", 5970],
  ["42B7G2 (antibody, V domains shown, Mouse monoclonal antibody purified from hybridoma supernatant on protein A) VH: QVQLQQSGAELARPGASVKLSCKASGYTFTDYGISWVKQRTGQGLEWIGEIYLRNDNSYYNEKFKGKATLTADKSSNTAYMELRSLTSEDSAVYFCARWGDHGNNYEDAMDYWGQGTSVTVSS VL: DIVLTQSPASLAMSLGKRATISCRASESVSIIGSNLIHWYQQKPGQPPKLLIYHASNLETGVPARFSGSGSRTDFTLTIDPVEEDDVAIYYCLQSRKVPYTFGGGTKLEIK", 3790],
  ["38H2E3 (antibody, V domains shown, Mouse monoclonal antibody purified from hybridoma supernatant on protein A) VH: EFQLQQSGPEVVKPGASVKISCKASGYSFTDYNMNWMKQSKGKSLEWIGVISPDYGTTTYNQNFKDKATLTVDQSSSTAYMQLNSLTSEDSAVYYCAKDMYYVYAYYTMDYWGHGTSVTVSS VL: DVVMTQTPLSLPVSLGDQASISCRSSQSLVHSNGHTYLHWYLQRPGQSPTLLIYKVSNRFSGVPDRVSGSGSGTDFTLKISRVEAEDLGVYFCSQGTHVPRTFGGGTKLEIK", 2370]
]}

Continue with the binder presented below.
Note to self: MFI recorded for 37C4F7 (antibody, V domains shown, Mouse monoclonal antibody purified from hybridoma supernatant on protein A) VH: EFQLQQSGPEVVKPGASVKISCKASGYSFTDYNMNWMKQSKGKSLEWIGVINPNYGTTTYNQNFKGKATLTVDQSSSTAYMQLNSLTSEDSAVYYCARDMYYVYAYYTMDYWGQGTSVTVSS VL: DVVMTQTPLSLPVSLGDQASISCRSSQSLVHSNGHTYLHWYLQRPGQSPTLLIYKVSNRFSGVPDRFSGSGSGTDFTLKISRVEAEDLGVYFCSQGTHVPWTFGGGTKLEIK was 2340
